Numbers sourced from ChEMBL document CHEMBL3414525.

Catalogue of GI50 readings, one per entry.
Assay: Antiproliferative activity against human OVCAR5 cells assessed as growth inhibition after 48 hrs by SRB assay
Format: functional
Details: OVCAR-5, 48 h
Please reply with the bare figure in nM and do not write the unit itself.

Some entries whose results are on file:
- O=C(CCCCN1C/C=C/CCOc2cccc(c2)-c2ccnc(n2)Nc2cccc(c2)C1)NO: 1220
- O=C(CCCCCCN1C/C=C/COCc2cccc(c2)-c2ccnc(n2)Nc2cccc(c2)C1)NO: 1420
- O=C(CCCCCN1C/C=C/CCOc2cccc(c2)-c2ccnc(n2)Nc2cccc(c2)C1)NO: 1420

Report GI50 for "O=C(CCCCN1C/C=C/COCc2cccc(c2)-c2ccnc(n2)Nc2cccc(c2)C1)NO" please.
1130

I'd like to know its GI50. The compound in question is "O=C(CCCCCCN1C/C=C/CCOc2cccc(c2)-c2ccnc(n2)Nc2cccc(c2)C1)NO"
1220

Form field: reported GI50 of "O=C(CCCCC(=O)N1C/C=C/CCOc2cccc(c2)-c2ccnc(n2)Nc2cccc(c2)C1)NO"
1520

###

Biological target: UniProt:O60674
Sequence (O60674 whole entry): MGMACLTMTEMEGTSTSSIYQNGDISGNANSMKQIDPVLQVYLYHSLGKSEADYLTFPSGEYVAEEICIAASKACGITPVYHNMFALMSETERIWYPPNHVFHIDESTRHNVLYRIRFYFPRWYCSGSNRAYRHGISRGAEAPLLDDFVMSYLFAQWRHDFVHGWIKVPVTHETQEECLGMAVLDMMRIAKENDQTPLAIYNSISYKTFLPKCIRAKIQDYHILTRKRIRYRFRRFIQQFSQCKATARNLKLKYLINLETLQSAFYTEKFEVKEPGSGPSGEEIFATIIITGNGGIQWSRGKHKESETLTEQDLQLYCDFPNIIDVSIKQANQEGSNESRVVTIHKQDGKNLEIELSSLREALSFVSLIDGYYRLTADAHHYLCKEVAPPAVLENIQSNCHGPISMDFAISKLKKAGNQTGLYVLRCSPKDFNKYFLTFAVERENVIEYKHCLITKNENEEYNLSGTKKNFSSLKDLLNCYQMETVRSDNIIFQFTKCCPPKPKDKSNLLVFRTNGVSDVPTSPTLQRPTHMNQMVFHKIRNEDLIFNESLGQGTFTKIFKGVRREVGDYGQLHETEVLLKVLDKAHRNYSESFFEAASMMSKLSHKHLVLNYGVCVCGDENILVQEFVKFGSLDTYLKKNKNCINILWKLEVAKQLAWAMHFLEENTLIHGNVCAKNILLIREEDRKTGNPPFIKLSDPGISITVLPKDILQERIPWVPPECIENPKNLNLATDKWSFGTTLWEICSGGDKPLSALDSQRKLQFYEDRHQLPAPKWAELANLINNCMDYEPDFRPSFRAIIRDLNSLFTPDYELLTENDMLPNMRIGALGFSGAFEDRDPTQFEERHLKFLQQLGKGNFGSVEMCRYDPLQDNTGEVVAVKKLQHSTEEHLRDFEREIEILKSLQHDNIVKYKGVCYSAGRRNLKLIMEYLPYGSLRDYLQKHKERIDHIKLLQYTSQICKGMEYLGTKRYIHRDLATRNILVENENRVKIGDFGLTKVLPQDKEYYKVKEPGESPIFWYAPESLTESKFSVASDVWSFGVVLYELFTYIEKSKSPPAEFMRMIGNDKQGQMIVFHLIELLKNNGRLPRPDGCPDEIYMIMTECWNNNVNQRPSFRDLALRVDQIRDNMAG
Experiment: Inhibition of human recombinant JAK2 using Z'LYTETry6 peptide substrate after 1 hr by microplate reader
Catalogue of compounds with associated pIC50
pIC50 field: float, defined as -log10 of concentration (mol/L).

Would you please look over these solved cases?
* O=C(CCCCN1C/C=C/COCc2cccc(c2)-c2ccnc(n2)Nc2cccc(c2)C1)NO | 6.41
* O=C(CCCCCN1C/C=C/COCc2cccc(c2)-c2ccnc(n2)Nc2cccc(c2)C1)NO | 6.23
* CN1C/C=C/CCOc2cccc(c2)-c2ccnc(n2)Nc2cccc(c2)C1 | 6.77

Query: pIC50; subject: "O=C(CCCCCCN1C/C=C/COCc2cccc(c2)-c2ccnc(n2)Nc2cccc(c2)C1)NO"
6.21

Dear colleague, I am looking for the recorded pIC50 of the following compound: "O=C(CCCCCCCC(=O)N1C/C=C/COCc2cccc(c2)-c2ccnc(n2)Nc2cccc(c2)C1)NO"
6.08

What value of pIC50 has been reported for the following compound? "O=C(CCCCCCC(=O)N1C/C=C/CCOc2cccc(c2)-c2ccnc(n2)Nc2cccc(c2)C1)NO"
6.25

Query (compound): "O=C(CCCCCCN1C/C=C/CCOc2cccc(c2)-c2ccnc(n2)Nc2cccc(c2)C1)NO" ; field requested: pIC50
6.16

I'd like to know its pIC50. The compound in question is "O=C(CCCCCCC(=O)N1C/C=C/COCc2cccc(c2)-c2ccnc(n2)Nc2cccc(c2)C1)NO"
6.16

Look at this compound and give its reported pIC50. "O=C(CCCCN1C/C=C/CCOc2cccc(c2)-c2ccnc(n2)Nc2cccc(c2)C1)NO"
6.53

# get_value(readout='pIC50', item= "O=C(CCCCC(=O)N1C/C=C/CCOc2cccc(c2)-c2ccnc(n2)Nc2cccc(c2)C1)NO" )
6.61
